- METHOD DESCRIPTION: Induction of oxidative burst in polymorphonuclear leukocytes (unknown origin) isolated from buffy coat at 10 uM after 40 mins by fluorescence assay relative to ingenol mebutate
- Assay type: functional
MEASURED PARAMETER: Emax at 10 µM (%)
Express your answer in %, writing the number without its unit.

Solved cases below.
>>> reported_value("CC1=C[C@]23C(=O)[C@@H](C=C(CO)[C@@H](O)[C@]2(O)[C@H]1OCC(=O)OC(C)(C)C)[C@H]1[C@@H](C[C@H]3C)C1(C)C")
111
>>> reported_value("CC1=C[C@]23C(=O)[C@@H](C=C(CO)[C@@H](O)[C@]2(O)[C@H]1OC(=O)C(C)C)[C@H]1[C@@H](C[C@H]3C)C1(C)C")
104

Shift focus to the following entry.
Supply measured Emax at 10 µM of CO/N=C(/C(=O)O[C@H]1C(C)=C[C@]23C(=O)[C@@H](C=C(CO)[C@@H](O)[C@]12O)[C@H]1[C@@H](C[C@H]3C)C1(C)C)c1ccccc1 in your reply.
117

* * *

Entries and their measured pKa follow.
- METHOD DESCRIPTION: Dissociation constant, pKa of the compound
- Format: physicochemical
Give the figure by itself; no unit, no explanation.

>>> reported_value("C/C=C(/C)C(=O)O")
4.3

Supply measured pKa of C/C=C(\C)C(=O)O[C@H]1C(C)=C[C@]23C(=O)[C@@H](C=C(CO)[C@@H](O)[C@]12O)[C@H]1[C@@H](C[C@H]3C)C1(C)C in your reply.
5.02

* * *

Entries and their measured Emax follow.
- Tested on: Keratinocyte
- METHOD DESCRIPTION: Induction of TNFalpha release in human primary epidermal keratinocytes after 6 hrs relative to ingenol mebutate
- Type: functional
Express your answer in %, writing the number without its unit.

Solved cases below.
>>> reported_value("CC1=C[C@]23C(=O)[C@@H](C=C(CO)[C@@H](O)[C@]2(O)[C@H]1OC(=O)c1ccccc1)[C@H]1[C@@H](C[C@H]3C)C1(C)C")
60
>>> reported_value("CC1=C[C@]23C(=O)[C@@H](C=C(CO)[C@@H](O)[C@]2(O)[C@H]1OC(=O)C(C)=C(C)C)[C@H]1[C@@H](C[C@H]3C)C1(C)C")
97
>>> reported_value("CC(C)=CC(=O)O[C@H]1C(C)=C[C@]23C(=O)[C@@H](C=C(CO)[C@@H](O)[C@]12O)[C@H]1[C@@H](C[C@H]3C)C1(C)C")
82

Shift focus to the following entry.
Report Emax on Keratinocyte for this entry: CC1=C[C@]23C(=O)[C@@H](C=C(CO)[C@@H](O)[C@]2(O)[C@H]1OC(=O)C1CCC1)[C@H]1[C@@H](C[C@H]3C)C1(C)C
60

* * *

- System: Keratinocyte
- METHOD DESCRIPTION: Induction of TNFalpha release in human primary epidermal keratinocytes after 6 hrs relative to ingenol mebutate
- Assay type: functional
Outcome label depends on Emax relative to 80%: at/above gives yes, below gives no.

Solved cases (5 shown):
>>> qualitative_label("C/C=C/C(=O)O[C@H]1C(C)=C[C@]23C(=O)[C@@H](C=C(CO)[C@@H](O)[C@]12O)[C@H]1[C@@H](C[C@H]3C)C1(C)C")
"yes"
>>> qualitative_label("C/C=C(/C)C(=O)O[C@H]1C(C)=C[C@@]23C(=O)[C@H]([C@H]4[C@@H](C[C@H]2C)C4(C)C)[C@H]2O[C@@]2(CO)[C@@H](O)[C@]13O")
"yes"
>>> qualitative_label("C=C(C)C(=O)O[C@H]1C(C)=C[C@]23C(=O)[C@@H](C=C(CO)[C@@H](O)[C@]12O)[C@H]1[C@@H](C[C@H]3C)C1(C)C")
"no"
>>> qualitative_label("CC1=C[C@]23C(=O)[C@@H](C=C(CO)[C@@H](O)[C@]2(O)[C@H]1OC(=O)C1=CCCCC1)[C@H]1[C@@H](C[C@H]3C)C1(C)C")
"no"
>>> qualitative_label("C=C(CC)C(=O)O[C@H]1C(C)=C[C@]23C(=O)[C@@H](C=C(CO)[C@@H](O)[C@]12O)[C@H]1[C@@H](C[C@H]3C)C1(C)C")
"yes"

Form field: Emax at least 80%? Entry: CCCC(=O)O[C@H]1C(C)=C[C@]23C(=O)[C@@H](C=C(CO)[C@@H](O)[C@]12O)[C@H]1[C@@H](C[C@H]3C)C1(C)C
yes

Form field: Emax at least 80%? Entry: C/C=C(/C(=O)O[C@H]1C(C)=C[C@]23C(=O)[C@@H](C=C(CO)[C@@H](O)[C@]12O)[C@H]1[C@@H](C[C@H]3C)C1(C)C)c1ccccc1
yes

Form field: Emax at least 80%? Entry: CC1=C[C@]23C(=O)[C@@H](C=C(CO)[C@@H](O)[C@]2(O)[C@H]1OC(=O)/C(C)=C\c1ccc(C)cc1)[C@H]1[C@@H](C[C@H]3C)C1(C)C
yes

Form field: Emax at least 80%? Entry: CC1=C[C@]23C(=O)[C@@H](C=C(CO)[C@@H](O)[C@@]24OC(=O)O[C@@H]14)[C@H]1[C@@H](C[C@H]3C)C1(C)C
yes

Form field: Emax at least 80%? Entry: CCC(CC)C(=O)O[C@H]1C(C)=C[C@]23C(=O)[C@@H](C=C(CO)[C@@H](O)[C@]12O)[C@H]1[C@@H](C[C@H]3C)C1(C)C
no

* * *

- METHOD DESCRIPTION: Chemical stability of the compound in aqueous buffer assessed as drug recovery after 16 hrs at pH 7.4 by HPLC analysis
- Type: physicochemical
- CONDITION INFO: read-out: Drug recovery
MEASURED PARAMETER: remaining at 16 h (%)
Express your answer in %, writing the number without its unit.

Solved cases below.
>>> reported_value("CCC(CC)C(=O)O[C@H]1C(C)=C[C@]23C(=O)[C@@H](C=C(CO)[C@@H](O)[C@]12O)[C@H]1[C@@H](C[C@H]3C)C1(C)C")
60
>>> reported_value("CC1=C[C@]23C(=O)[C@@H](C=C(CO)[C@@H](O)[C@]2(O)[C@H]1OCC(=O)OC(C)(C)C)[C@H]1[C@@H](C[C@H]3C)C1(C)C")
95

Supply measured remaining at 16 h of C/C=C(/C)C(=O)O[C@H]1C(C)=C[C@]23C(=O)[C@@H](C=C(CO)[C@@H](O)[C@]12O)[C@H]1[C@@H](C[C@H]3C)C1(C)C [INGENOL MEBUTATE] in your reply.
60

* * *

Entries and their measured Emax at 10 µM follow.
- METHOD DESCRIPTION: Induction of oxidative burst in polymorphonuclear leukocytes (unknown origin) isolated from buffy coat at 10 uM after 40 mins by fluorescence assay relative to ingenol mebutate
- Format: functional
Express your answer in %, writing the number without its unit.

>>> reported_value("C/C=C(\\C)C(=O)O[C@H]1C(C)=C[C@]23C(=O)[C@@H](C=C(CO)[C@@H](O)[C@]12O)[C@H]1[C@@H](C[C@H]3C)C1(C)C")
92

Shift focus to the following entry.
Supply measured Emax at 10 µM of CC#CC(=O)O[C@H]1C(C)=C[C@]23C(=O)[C@@H](C=C(CO)[C@@H](O)[C@]12O)[C@H]1[C@@H](C[C@H]3C)C1(C)C in your reply.
112

* * *

- Test system: Keratinocyte
- METHOD DESCRIPTION: Induction of TNFalpha release in human primary epidermal keratinocytes after 6 hrs relative to ingenol mebutate
- Format: functional
Use Emax to assign classes; range list: lowest: < 60%; middle: ≥ 60% and < 70%; highest: ≥ 70%

>>> qualitative_label("C/C=C(/C)C(=O)O[C@H]1C(C)=C[C@@]23C(=O)[C@H]([C@H]4[C@@H](C[C@H]2C)C4(C)C)[C@H](F)C(CO)=C[C@]13O")
"middle"
>>> qualitative_label("CC1=C[C@]23C(=O)[C@@H](C=C(CO)[C@@H](O)[C@]2(O)[C@H]1OC(=O)C1(C)CCCCC1)[C@H]1[C@@H](C[C@H]3C)C1(C)C")
"middle"
>>> qualitative_label("CO/N=C(/C(=O)O[C@H]1C(C)=C[C@]23C(=O)[C@@H](C=C(CO)[C@@H](O)[C@]12O)[C@H]1[C@@H](C[C@H]3C)C1(C)C)c1ccccc1")
"lowest"

Returns: class label. Input: CO/N=C(\C(=O)O[C@H]1C(C)=C[C@]23C(=O)[C@@H](C=C(CO)[C@@H](O)[C@]12O)[C@H]1[C@@H](C[C@H]3C)C1(C)C)c1ccccc1
lowest

Returns: class label. Input: CCCCCCCCCCCCCCCC(=O)O[C@H]1C(C)=C[C@]23C(=O)[C@@H](C=C(CO)[C@@H](O)[C@]12O)[C@H]1[C@@H](C[C@H]3C)C1(C)C
highest
